- System: RAW264.7 cells
- PROTOCOL: Cell viability (MTT) of RAW264.7 cells
- Format: cell-based
- CONDITION: Test Con. 10 μM; MTT; RAW264.7 cells; percentage of viable LPS-stimulated cells
ENDPOINT_NAME: Cell Viability (%) mean
Response body: numeric value in %, unit text excluded.

C=CC(=O)N(c1ccc(F)cc1Cl)S(=O)(=O)N1CCCC1 :: 97.6
C=CC(=O)N(C1CC1)S(=O)(=O)c1ccc(F)cc1Cl :: 93.5
C=CC(=O)N(c1ccc(F)cc1Cl)S(=O)(=O)Cc1ccccc1 :: 102.8
C=CC(=O)N(c1ccc(F)cc1Cl)S(=O)(=O)c1ccccc1S(C)(=O)=O :: 48.3
C=CC(=O)N(c1ccc(F)cc1Cl)S(=O)(=O)c1ccc(F)cc1Cl :: 99.7

Request: Using the record for C=CC(=O)N(c1ccc(F)cc1Cl)S(=O)(=O)N1CCCCC1C(=O)OC (stereo not drawn) , report its Cell Viability (%) mean.
Result: 88.1

Request: What value of measured Cell Viability (%) mean is listed for C=CC(=O)c1ccccc1S(=O)(=O)N(C)c1ccccc1 ?
Result: 69.6

Request: # input compound: C=C(C)C(=O)N(c1ccc(F)cc1Cl)S(=O)(=O)c1ccccc1 ; wanted: its Cell Viability (%) mean
Result: 100.0

Request: Consider the compound C=CC(=O)N(c1ccc(F)cc1Cl)S(=O)(=O)c1ccccc1[N+](=O)[O-] and give its measured Cell Viability (%) mean.
Result: 96.4
